Listing of recorded MIC by entry.
Test system: Micrococcus luteus
assay.procedure: Antibacterial activity against Micrococcus luteus ATCC 4698 by two fold serial dilution method
Assay type: functional
measured.endpoint: MIC

                                 mol_smiles  measured_endpoint     measured
0  COc1ccc2cc3[n+](cc2c1OCCN(CCn1cncn1)Cc1ccc(Cl)cc1)CCc1cc2c(cc1-3)OCO2.[Cl-]                MIC     16 µg/mL
1  COc1ccc2cc3[n+](cc2c1OC)CCc1cc2c(cc1-3)OCO2                MIC  > 512 µg/mL
2             Clc1ccc(CN(CCBr)CCn2cncn2)cc1                MIC    512 µg/mL
3                Fc1ccccc1CN(CCBr)CCn1cncn1                MIC     64 µg/mL
4  COc1ccc2cc3[n+](cc2c1OCCN(CCn1cncn1)Cc1ccccc1F)CCc1cc2c(cc1-3)OCO2.[Cl-]                MIC      8 µg/mL

meta.source: ChEMBL document CHEMBL2311281
